Parameter: cell viability. Scope: all listed entries.
# System: P12-Ichikawa
# testDescription: cell viability relative to DMSO control; higher = less cytotoxic
# conditionContext: RPMI 5 mM glucose + 10% dialyzed FBS; 48 h; 0.569 µM
Mention the unit after the number when you answer.

1) Cc1noc(-c2ccc(CSCCC(=O)O)cc2)c1NC(=O)OC(C)c1ccccc1Cl (stereo not drawn)    84.8%
2) C[C@H]1O[C@H](C[C@H](O)[C@@H]1O)O[C@H]2[C@@H](O)C[C@@H](O[C@@H]2C)O[C@H]3[C@@H](O)C[C@@H](O[C@@H]3C)O[C@H]4CC[C@@]5(C)[C@H](CC[C@@H]6[C@@H]5C[C@@H](O)[C@]7(C)[C@H](CC[C@]67O)C/8=C/C(=O)OC8)C4    13.3%

query: # input compound: CC1(C)C(N(O)C(=O)Nc2ccc(Cl)cc2)N(c2ccc(Cl)cc2)C(=O)N1CC(=O)N/N=C/C=C/c1ccc([N+](=O)[O-])o1 (stereo not drawn) ; wanted: its cell viability
result: 104%
